test: blockers of RIG-like receptor reporter activation – cell-based, Sendai virus stimulus, luciferase, 10K MLSCN set, TLR/RLR signaling modifier project, primary screen (AID 602276); conditions: HEK293 RL24 IRF3 luciferase reporter, at 10 µM, hits give high values;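 further: firefly luciferase from ISG56 promoter only with Renilla not read in this screen; 0% = Sendai virus plus DMSO and 100% = medium plus DMSO without virus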

{"columns": ["compound", "units-label", "inhibition"],
 "data": [
  ["c1ccc(-c2nc3nonc3c3nc4ccccc4n23)cc1", "%", 9.01],
  ["COc1ccc(COC(=O)c2n[nH]c3ccccc23)cc1F", "%", -16.1],
  ["O=C(NCc1cccnc1)c1cn(CCc2ccccc2)nn1", "%", 10.9],
  ["COC(=O)Cn1cnc2sc(C)c(S(=O)(=O)N3CCC(C)CC3)c2c1=O", "%", 6.12],
  ["COc1cc(C)nc(OCCNC(=O)COc2ccc(Cl)cc2C)n1", "%", -3.41],
  ["c1cncc(C2Nc3ccccc3-c3nc4ccccc4n32)c1 (configuration not stated)", "%", -7],
  ["COc1cc2c(cc1OC)CN(C(=O)CSc1nnc3scc(-c4ccccc4)n13)CC2", "%", 1.32],
  ["CCOC(=O)C1=C(C)N(C)C(C)=C(C(=O)OCC)C1c1cccnc1", "%", -2.74],
  ["CN(Cc1ccccc1)C(=O)c1cc(-c2ccc(Br)cc2)on1", "%", -49.5],
  ["O=C(CSc1nc2ccccc2c(=O)n1CCC(=O)N1CCCCC1)NCc1ccccc1", "%", 17.4],
  ["CN(C(=O)C1CCOC1)c1nnc(-c2cccnc2)s1 (configuration not stated)", "%", -22],
  ["COc1ccc2c(c1)CCc1cc(C(=O)N3CCN(c4ccc(N5CCOCC5)nn4)CC3)sc1-2", "%", 2.81],
  ["Cc1ccc(-c2nnc(SC(C)C#N)n2N)cc1 (configuration not stated)", "%", 10.4],
  ["COc1ccc(OC)c(Nc2nc(-c3cccs3)cs2)c1", "%", 7.1],
  ["CCCN1CCN(C(=O)Cn2cccc2C(=O)c2ccccc2)CC1", "%", 7.77],
  ["Cc1cccc(NC(=O)CCCCCN2C(=O)c3ccccc3C2=O)n1", "%", 15.6],
  ["Cc1[nH]c2ccccc2c(=O)c1CN(C)Cc1ccccc1", "%", -21],
  ["Cc1ccccc1NC(=O)C1CCCN(S(=O)(=O)c2cccc3cccnc23)C1 (configuration not stated)", "%", 1.01],
  ["Nc1nc(CSc2nc3ccccc3[nH]2)nc(N2CCOCC2)n1", "%", 3.37],
  ["Cc1cc(C(=O)COc2cccc3cccnc23)c(C)n1C", "%", -44.6],
  ["COC(=O)c1ccccc1NC(=O)C1CCCCC1C(=O)O (configuration not stated)", "%", 12.8],
  ["O=C(NCc1cccs1)c1cc2c(s1)CS(=O)(=O)C2", "%", 23.3],
  ["COc1ccc(S(=O)(=O)N2CCCC2C(=O)Nc2ccc(O)cc2)cc1 (configuration not stated)", "%", 1.14],
  ["NC(=O)c1ccsc1NC(=O)COC(=O)Cc1ccsc1", "%", 9.36],
  ["CCCCCC(=O)N(CN1C(=O)CCC1=O)c1ccccc1", "%", 9.92],
  ["CSc1nnc(-c2nnc(SC)n2-c2ccccc2)n1-c1ccccc1", "%", 9.27],
  ["COc1cccc2c(=O)cc(C)n(CC(=O)Nc3ccc(C)c(C)c3)c12", "%", 0.857],
  ["Cc1nn(Cc2ccccc2Cl)c(C)c1NC(=O)C1C2CCC(O2)C1C(=O)O (configuration not stated)", "%", -10.5],
  ["CCOC(=O)Cc1csc(NC(=O)CSc2nnc(C3CC3)n2C)n1", "%", 10.5],
  ["COc1ccccc1-n1c(SCC(N)=O)nnc1-c1ccccc1", "%", 13.3],
  ["N#CC1=C(N)OC2=C(CCC/C2=C/c2ccoc2)C1c1ccoc1 (configuration not stated)", "%", -7.37],
  ["COc1ccc(-c2nc(SC)n(S(=O)(=O)c3ccccc3)n2)cc1", "%", -26],
  ["CCC(=O)c1cc(F)c(N2CCN(C(=O)c3ccco3)CC2)cc1C", "%", 1.51],
  ["Cc1cccc2c1N(CC(=O)OC(C)C)C(=O)C2=O", "%", -2.09],
  ["c1cnc(NCCNc2ncccn2)nc1", "%", 5.48],
  ["Cc1noc(C)c1S(=O)(=O)N1CCC(C(=O)N2CCN(Cc3ccc4c(c3)OCO4)CC2)CC1", "%", 13.4],
  ["CCCOc1ccc(N2C(=O)CC(NCCCN3CCC(C(N)=O)CC3)C2=O)cc1 (configuration not stated)", "%", 19.4],
  ["COc1cccc(-c2csc3nc[nH]c(=O)c23)c1", "%", 8.62],
  ["Cn1nnnc1SCSc1nnnn1C", "%", 0.0465],
  ["O=C(O)COc1ccc(Oc2ccccc2)cc1", "%", 3.08],
  ["COc1cccc(C(=O)Nc2ccc(NC(C)=O)cn2)c1", "%", -36.2],
  ["CCSC1(SCC)N=C(N)C2(C#N)C(c3ccccc3)NC(C)=C(C)C12C#N (configuration not stated)", "%", 7.48],
  ["Cc1cccc(OCc2nc(C#N)c(NCCN(C)C)o2)c1", "%", 9.05],
  ["Cc1ccnc(NS(=O)(=O)c2ccc(NC(=O)Cc3cccs3)cc2)n1", "%", -4.32],
  ["COc1ccc(CC(=O)Nc2c3c(nn2-c2cccc(Cl)c2)CS(=O)(=O)C3)cc1", "%", 19.7],
  ["O=C(Cc1cccs1)N(c1ccccc1)C1C=CS(=O)(=O)C1 (configuration not stated)", "%", 10.7],
  ["Cc1ccnc(NC(=O)C2CCCN(S(=O)(=O)c3cnc[nH]3)C2)c1 (configuration not stated)", "%", -13.6]
]}
